# target_or_system: HRgpA-6H (Porphyromonas gingivalis) (UniProt P28784)
# test: ELISA, coated HRgpA-6H
value_type: OD450 nm

Noted for KB001 mouse Fab VH S61Q (Fab, V domains shown) VH: EVQLKQSGPGLVAPSQSLSITCTVSGFSLSIYSVHWVRQPPGKGLEWLGMIWGGGSSDYNQALKSRLSISKDNSKSQVFLKMNSLQTDDTAMYYCARNGNFYAMDYWGQGTSVTVSS VL: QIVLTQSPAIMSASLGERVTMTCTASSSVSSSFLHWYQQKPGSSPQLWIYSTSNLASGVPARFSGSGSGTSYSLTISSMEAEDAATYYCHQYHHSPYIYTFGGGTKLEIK : its OD450 nm reads 0.634

Noted for KB001 mouse Fab VL S53E (Fab, V domains shown) VH: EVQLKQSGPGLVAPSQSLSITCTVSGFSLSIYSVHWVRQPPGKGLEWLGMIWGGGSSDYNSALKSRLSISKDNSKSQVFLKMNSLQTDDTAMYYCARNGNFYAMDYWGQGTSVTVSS VL: QIVLTQSPAIMSASLGERVTMTCTASSSVSSSFLHWYQQKPGSSPQLWIYSTENLASGVPARFSGSGSGTSYSLTISSMEAEDAATYYCHQYHHSPYIYTFGGGTKLEIK : its OD450 nm reads 0.766

Noted for KB001 mouse Fab VL F33N (Fab, V domains shown) VH: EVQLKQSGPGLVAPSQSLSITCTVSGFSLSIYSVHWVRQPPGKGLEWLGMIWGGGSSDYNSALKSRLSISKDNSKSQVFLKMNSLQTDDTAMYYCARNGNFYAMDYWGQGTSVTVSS VL: QIVLTQSPAIMSASLGERVTMTCTASSSVSSSNLHWYQQKPGSSPQLWIYSTSNLASGVPARFSGSGSGTSYSLTISSMEAEDAATYYCHQYHHSPYIYTFGGGTKLEIK : its OD450 nm reads 0.64

Noted for KB001 mouse Fab VH S61N (Fab, V domains shown) VH: EVQLKQSGPGLVAPSQSLSITCTVSGFSLSIYSVHWVRQPPGKGLEWLGMIWGGGSSDYNNALKSRLSISKDNSKSQVFLKMNSLQTDDTAMYYCARNGNFYAMDYWGQGTSVTVSS VL: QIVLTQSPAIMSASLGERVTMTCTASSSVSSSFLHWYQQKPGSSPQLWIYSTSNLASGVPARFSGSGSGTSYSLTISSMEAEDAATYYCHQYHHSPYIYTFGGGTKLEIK : its OD450 nm reads 0.537

Noted for KB001 mouse Fab VL T100M (Fab, V domains shown) VH: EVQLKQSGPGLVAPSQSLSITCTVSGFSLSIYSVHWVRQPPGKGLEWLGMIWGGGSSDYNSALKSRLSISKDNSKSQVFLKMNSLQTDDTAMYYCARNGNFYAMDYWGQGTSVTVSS VL: QIVLTQSPAIMSASLGERVTMTCTASSSVSSSFLHWYQQKPGSSPQLWIYSTSNLASGVPARFSGSGSGTSYSLTISSMEAEDAATYYCHQYHHSPYIYMFGGGTKLEIK : its OD450 nm reads 0.589

Noted for KB001 mouse Fab VH N60T (Fab, V domains shown) VH: EVQLKQSGPGLVAPSQSLSITCTVSGFSLSIYSVHWVRQPPGKGLEWLGMIWGGGSSDYTSALKSRLSISKDNSKSQVFLKMNSLQTDDTAMYYCARNGNFYAMDYWGQGTSVTVSS VL: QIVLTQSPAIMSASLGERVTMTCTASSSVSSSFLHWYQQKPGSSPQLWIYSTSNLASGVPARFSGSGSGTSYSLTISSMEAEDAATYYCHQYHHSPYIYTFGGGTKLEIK : its OD450 nm reads 0.406

Noted for KB001 mouse Fab VL V29L (Fab, V domains shown) VH: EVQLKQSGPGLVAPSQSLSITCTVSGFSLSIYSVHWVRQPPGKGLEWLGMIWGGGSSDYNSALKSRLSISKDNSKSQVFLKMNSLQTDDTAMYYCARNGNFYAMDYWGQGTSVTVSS VL: QIVLTQSPAIMSASLGERVTMTCTASSSLSSSFLHWYQQKPGSSPQLWIYSTSNLASGVPARFSGSGSGTSYSLTISSMEAEDAATYYCHQYHHSPYIYTFGGGTKLEIK : its OD450 nm reads 0.751

Noted for KB001 mouse Fab VL S31Y (Fab, V domains shown) VH: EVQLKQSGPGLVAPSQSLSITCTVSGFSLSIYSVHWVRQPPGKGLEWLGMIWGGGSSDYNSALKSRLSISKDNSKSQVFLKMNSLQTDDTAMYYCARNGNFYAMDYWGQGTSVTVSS VL: QIVLTQSPAIMSASLGERVTMTCTASSSVSYSFLHWYQQKPGSSPQLWIYSTSNLASGVPARFSGSGSGTSYSLTISSMEAEDAATYYCHQYHHSPYIYTFGGGTKLEIK : its OD450 nm reads 0.849

Noted for KB001 mouse Fab VL S30K (Fab, V domains shown) VH: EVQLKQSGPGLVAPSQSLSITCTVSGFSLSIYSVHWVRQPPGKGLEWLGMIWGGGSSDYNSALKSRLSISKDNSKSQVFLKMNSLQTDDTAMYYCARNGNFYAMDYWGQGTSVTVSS VL: QIVLTQSPAIMSASLGERVTMTCTASSSVKSSFLHWYQQKPGSSPQLWIYSTSNLASGVPARFSGSGSGTSYSLTISSMEAEDAATYYCHQYHHSPYIYTFGGGTKLEIK : its OD450 nm reads 0.77
